# studyTarget: T1, recombinant human M-CSF (human, UniProt P09603 33-190, limits assumed)
# T1 sequence: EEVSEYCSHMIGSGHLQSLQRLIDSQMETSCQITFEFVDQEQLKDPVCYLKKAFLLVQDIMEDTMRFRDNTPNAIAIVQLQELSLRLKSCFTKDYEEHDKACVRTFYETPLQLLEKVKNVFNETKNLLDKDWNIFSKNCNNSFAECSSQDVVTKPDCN
# experimentalDetails: cell-based or functional assay
reportedProperty: IC50 Fold Loss (fold)
Number only, in fold; omit the unit.

Form field: reported IC50 Fold Loss of heRX1-8.G2 (antibody, V domains shown, copies: 2 + 2) VH: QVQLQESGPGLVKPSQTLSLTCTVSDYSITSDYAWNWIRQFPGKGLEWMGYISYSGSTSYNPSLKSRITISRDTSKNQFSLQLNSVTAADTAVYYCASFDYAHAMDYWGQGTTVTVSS VL: EIVLTQSPGTLSVSPGERVTFSCRASQSIGTSIHWYQQKTGQAPRLLIKYASESISGIPDRFSGSGSGTDFTLTISRVESEDFADYYCQQINSWPTTFGQGTKLEIK
5.9
